Values from the supplement of paper PMC9170038

- Test system: K4 kissing-loop RNA reporter;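 also: bound reporter read as fluorescence of individual clusters on recovered sequencing chips by microscopy, with normalized cluster intensities fitted with a binding model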
- Test Description: apparent KD of K4 kissing-loop reporter; higher = weaker reporter binding
- Assay Setup: Eterna round: R107; input ligand: theophylline 20 uM
// map apparent KD of K4 kissing-loop reporter to label using 0 (below 200 nM), 1 (200 nM to below 400 nM), 2 (400 nM or more)

- Biosequence: "UGCGCUAUGUCCUAAAACGUCCUCCGGGAUACCAGUGUCUUUUUAUACCCUUGGCAGCUUGAGUGAUGUUUGAUGCCGUUCUUGU [izzxmullin]"
  Group: 1
- Biosequence: "CGCAAGCAGCCAGUGAUGUUGGCCGCCUUGCGAGGACCGGUACGGCCGCCACUCGAAGGCGGCUACUAGUAAACCGCCUAACGGA [KL-XTryp-A17]"
  Group: 0
- Biosequence: "AAGCAGUCACUCGACGCCAUCGAAGAUGGGCGAGGACCGGUACGGCCGCCACUCGGAGUGAUGUUCCGAAGACUGCAAAAUAAAA [MatMod 6 - Jieux - Exclusion - Tryptophan A]"
  Group: 1
- Biosequence: "AGUAAUGAGUGAUGUUCAAGUAGUAAGGAUACCAGUAAUUCAAAAUGCCCUUGGCAGCUUAGCGCUACCAAUAGAUGGGUAGUGG [Theophilline A V3 (+6G)]"
  Group: 1
- Biosequence: "GUAGAUAGGCUACAUCUCUAGUCUAAACACUAGGAUAUCAGGAAACUGAGAAGGAGUGUCAUUGGAGUGAUGUUCCAAGAAUAAU [KL-SSFMN-A17]"
  Group: 1
- Biosequence: "UCUCCAAAGUCGGCCGCCACUCCGGGCCCUAUAAAUGGGCGCAGUGAUGUUGCGGCUAGGCCUCUGAGGACCGGGACUUUGUAGA [Estiorquin]"
  Group: 0
- Biosequence: "GUACGCUCUCGAGUGAUGUUCGGUAAUCGCGAGGAUAUCGCUUUUGCGAGAAGGCGCGGAAUGAGGAAACUCGUUCUGAGUGUAC [FMN A 23]"
  Group: 2
- Biosequence: "UACUAUAGUGAUGUUAUAGAUAAACCAGAUACCAGUGUAACAUAACACCCUUGGCAGCUGAUGAGGGAACAUAUGAAUGCAUAUG [AstrosSSTHe-A#5newdesignED5.11]"
  Group: 0
- Biosequence: "AUUAUCAAUUUAUUAUAUAACUUUUCAGAAGGAGCGUGGAAGUACACAGGUAGGUCGCUGAAUAUAGGACUAGUGAUGUUAGUUA [JR_Nu_SSArginiA_Sub024]"
  Group: 1
- Biosequence: "GCACUACAAUAAGGAUAUCAUAAAAUGGAGAGCGAGUGAUGUUCGCAGAGACACCUAUUUUUCCUAUGAGAAGGUAUUAACGCCG [theeternabot_sameState_KL_FMN_B_40]"
  Group: 0
- Biosequence: "GGCCGCAAGGCGAGCGCUCCCACUCCGGAAGGAGCGCCCGUAAGGGCAGGUAGGUCGCCGGAGUGAUGUUCCGGUGGAGGGCUCG [#2 Exclusion - Arginine A Attempt #17 (Inspired by Omei)]"
  Group: 2
- Biosequence: "AUGCGCGUGCGAUGGAAAUCGCACGCGCAUCGAGGACCGGUACGGCCGCCACUCGCUCGCGCCGAGUGAUGUUCGGCCGGCGAAC [#2 SameState - Tryptophan_A Attempt #3 (HarryS)]"
  Group: 1
- Biosequence: "GGCGCAGUGAUGUUGCGGGCCGAGAGUGAUACCAGCCGUAUUUGUGGCCCUUGGCAGCGCAGAACCAGUGAUGUUGGUUACUUGG [Same State Theophylline A GF 22]"
  Group: 2
- Biosequence: "GGUAGCAUGGCGGCCGCCACUGAGGCCCUAUGCGAGUCCUCUACAACCUAGUGAUGUUAGGCGUCCAGGACCGGGCCAUGCUACC"
  Group: 0
- Biosequence: "GGUGACAACCAGAAGUGAUGUAUAGAAUAGCGAGGACCGGUACGGCCGCCACUCGUGAAGAGAAAGGAGUGAUGUUCCGUAAUGG [Kazoo C4]"
  Group: 1
- Biosequence: "UGUACCGAGUCAGGAUAUGGCGUCGAAAGACGAAUGCUAGUGAUGUUAGGGAUCUGCGAAAGCAGUUCAGAAGGGACUUGGUACU [FmnBS 26 G36+U67]"
  Group: 1
- Biosequence: "ACGUCACGUAUACUCGUGGUUUCGAUCGAUACCAGUAGCGAGAGUUACCCUUGGCAGCGACAUGAGUGAUGUUCAUGUGCGAAGA [KL-XTheo-A3 #analogue]"
  Group: 0
